Assay: NCI Yeast Anticancer Drug Screen. Data for the rad50 strain (AID 155);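 further: 0% = growth of vehicle-only cultures of the same strain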
Details: S. cerevisiae rad50 strain growth inhibition; at 50.0 µM; stronger effect = higher value
Description: Growth inhibition of yeast strains with defined genetic alterations is measured as a screen for potential anti-cancer activity. Selected strains with alterations in DNA damage repair or cell cycle control were exposed to compounds and growth inhibition was measured relative to vehicle treated controls. The strain used in this assay is rad50
This is part of a sample that, as a whole, favours compounds with a hit. Of some 79,000 tested, about 15% had one in any assay.
reported.property: growth inhibition (%)

molecule	reported.result
CCOc1ccc(N2C(C#N)c3ccccc3OC2c2ccccc2O)cc1 (centres undefined)	3.65
O=C(OCC(O)C(O)C(O)COC(=O)c1ccccc1)c1ccccc1 (centres undefined)	-11.6
COC1(OC)C2(Cl)C(Cl)=C(Cl)C1(Cl)C1CCCCCC12 (centres undefined)	-4.95
S=c1nc[nH]c2nc[nH]c12	-18
CC1(C)OC(=O)C(=Cc2ccc(C#N)cc2)C(=O)O1	19
C=CCOC(=O)CCCCC	5
CC(O)c1ccc2c(c1)Nc1ccccc1S2 (centres undefined)	-6.95
Cc1cnc(N)s1	3.8
Cc1c(Cl)c(C)c(Cc2c(C)c(Cl)c(C)c(Cl)c2O)c(O)c1Cl	-4.7
CCOC(=O)C(N)Cc1cc(I)c(O)c(I)c1 (centres undefined)	-20.1
CC1OC(OC2C(CO)OC(O[C@H]3CC[C@@]4(C)C(=CC[C@H]5[C@@H]6C[C@@H]7O[C@]8(CC[C@@H](C)CN8)[C@@H](C)[C@@H]7[C@@]6(C)CC[C@@H]54)C3)C(O)C2O)C(O)C(O)C1O (some centres undefined)	-17.1
Cc1ccc(S(=O)OC2C3CC4CC(C3)CC2C4)cc1 (centres undefined)	6.65
Nc1c(S(=O)(=O)O)cc(Br)c2c1C(=O)c1ccccc1C2=O	54.5
CC1(C)OC2C(CO)OC(n3cnc4c(=S)nc(N)[nH]c43)C2O1 (centres undefined)	18.6
CCOC(=O)N1CCN(C(=O)OCC)C(C)C1 (centres undefined)	4.45
COc1ccccc1NC(=O)CCl	17.8
COC(=O)/C(=C\c1ccc(N(CCC#N)CCC#N)cc1)NC(=O)c1cc([N+](=O)[O-])ccc1Cl	-0.55
COc1ccccc1OCC(O)CO (centres undefined)	-8.3
CCC(C(=O)O)c1ccc(OCc2ccccc2)cc1 (centres undefined)	15.7
O=C(O)/C=C/C(=O)Nc1ccccc1NC(=O)/C=C/C(=O)O	15.2
CC(=O)[C@H]1C[C@@H](CC(=O)O)C1(C)C	-0.55
COCCCNc1ncnc2c1cnn2-c1ccc(Cl)cc1	-1.3
CC(=O)Nc1ccc(CCNC(=O)c2ccc3ccccc3c2O)cc1	-21.8
CCc1ccc(OC(=O)CCl)cc1	-19.4
CC1CNC(=S)O1 (centres undefined)	-18.2
Oc1ccc2ccc3[nH]cnc3c2c1	-22.5
O=S1(=O)OCOS(=O)(=O)OCO1	-24.9
COc1cccc(C2c3cc4c(cc3OC(C)(OC)C2C)OCO4)c1 (centres undefined)	19.8
CN(C)c1ccc(Cc2ccc(N(C)C)c3cccnc23)c2ncccc12	-5.45
O=C(CC(=O)N1N=C(N(c2ccccc2)c2ccccc2)CC1c1ccccc1)Nc1ccccc1 (centres undefined)	17.1
ClC(Cl)(Cl)C1CCC2CCCC21 (centres undefined)	4.15
O=C(O)Cn1ccc(=O)c2ccc([N+](=O)[O-])cc21	35.7
NC(=O)c1ccccc1NC(=O)C(=O)Cc1nc2ccccc2[nH]c1=O	-2.55
C1CCC(CCC2CCCC[N-]2)[N-]C1.[I][Co][I] (centres undefined)	48.3
CCN(CC)[Si](C)(C)C	-24.1
O=[N+]([O-])c1ccc(-c2cc3ccccc3nc2Cl)cc1	15.4
O=c1[nH]c(=S)[nH]n1C(=S)n1[nH]c(=S)[nH]c1=O	5.35
C1CSC(Sc2nc(SC3=NCCS3)nc(SC3=NCCS3)n2)=N1	-22
Cc1ccc(N2C(=O)CC3(CCCC3)C2=O)cc1Cl	14.6
COc1cc2c(cc1O)C(=O)CCCC2	-13.8
CS(=O)(=O)OCC1NC(=O)C(COS(C)(=O)=O)NC1=O (centres undefined)	-10.4
C/C(CC(=O)Nc1ccc(Cl)c(Cl)c1)=N/NC(=O)C[n+]1ccccc1	16.8
CC(=O)/C=c1\[nH]/c(=C\C=C\c2ccccc2)c(=O)n1/C=C1\C(=O)Oc2ccccc2C1=O	-39.4
O=C1c2ccccc2-c2nc(-c3cccnc3)cc3c2c1nc1ccccc13	32.7
O=COCCCc1ccccc1	15.8
O=C(O)Cc1[nH]c(=O)[nH]c(=O)c1CCl	-27.9
Cc1cccc(-n2cccc2)c1	-1.6
CN(C)CCN1CCCN(C)CC1	-14.9
COc1ccc(/C=C2\CCC(CNc3cc(C)on3)C2=O)cc1 (centres undefined)	21.5

###

The following compounds are shown together with reported growth inhibition values.
Assay: NCI Yeast Anticancer Drug Screen. Data for the rad50 strain (AID 155);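 further: 0% = growth of vehicle-only cultures of the same strain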
Settings: S. cerevisiae rad50 strain growth inhibition; at 50.0 µM; stronger effect = higher value
The panel holds about 79,000 compounds, 15% with a hit somewhere; the sample as a whole holds those more often.

compound	growth inhibition (%)
BrC1(Br)C2CC/C=C/CCCCC21 (configuration not stated)	-10.1
Cc1nc2[nH]cc(-c3ccccc3)c2c(=N)n1-c1ccc(F)cc1	-7.45
COC(=O)c1nc(=S)[nH]c(C(=O)OC)c1C(=O)c1ccccc1	-25.9
O=C(O)c1ccc(CS(=O)c2ccccc2)c([N+](=O)[O-])c1 (configuration not stated)	8.2
Nc1nnc(-c2ccc(Nc3nc4ccccc4[nH]3)c([N+](=O)[O-])c2)s1	7
Nc1cc(=O)n(Cc2ccco2)c(=S)[nH]1	19.8
N/C=N/OCc1ccccc1	10
Cc1cc2ncn(CO)c2cc1C	-4.5
CCN(CC)CC(O)c1cccc2cccnc12 (configuration not stated)	67.7
COc1cc2ccc1OCc1cccc(n1)COc1ccc(cc1OC)C=NCCNCCN=C2	-4.6
CC1(C)OC2COC(c3[nH]nc(C(N)=O)c3C(=O)N=[N+]=[N-])C2O1 (configuration not stated)	-11.3
Cc1ccc(C(C)(CCC(=O)O)c2ccc(C)o2)o1	36.2

###

Assay: NCI Yeast Anticancer Drug Screen. Data for the bub3 strain (AID 167)
Settings: S. cerevisiae bub3 mutant strain, at 50.0 µM, stronger effect = higher value
The panel holds about 79,000 compounds, 15% with a hit somewhere; the sample as a whole holds those more often. Active and inactive are the calls of the source. Rule as the data show it: active = growth inhibition above about 70%; inactive = the rest.

compound	growth inhibition
Cc1ccc([N+](=O)[O-])cc1Br	5.5% (inactive)
ClC1CC2CCC1C2 (configuration not stated)	-8.3% (inactive)
COC(=O)/C(N=Nc1cccc(C)c1)=C(\C)O	9.8% (inactive)
Cc1cccc(-c2nnc(N)o2)c1[N+](=O)[O-]	-11.4% (inactive)
FC1(F)C(F)(F)C(F)(F)C2(F)C(F)(F)C(F)(F)C(F)(F)C(F)(F)C2(F)C1(F)F (configuration not stated)	-0.8% (inactive)
CC(C)(C)CC(=O)Nc1ccccc1	-8.9% (inactive)
Cc1ccc(SC(C)/C=C/NNC2=NC(c3ccccc3)C(c3ccccc3)=NN2)cc1 (configuration not stated)	13.7% (inactive)
CC(=O)Nc1ccc2oc(=O)ccc2c1	-4.2% (inactive)
CC1=C(CO)C(=O)O[C@@H]([C@@H](C)[C@H]2CC[C@H]3[C@@H]4C[C@H]5O[C@]56[C@@H](O)C=CC(=O)[C@]6(C)[C@H]4CC[C@]23C)C1	89.7% (active)
OC(Cc1ccc2ccccc2n1)(C(F)(F)Cl)C(F)(F)Cl	-4.45% (inactive)
CCOC(=O)C12CCC(=O)CC1(O)CCC1(C2)OCCCO1 (configuration not stated)	10.9% (inactive)
Cn1ccc2c(C(=O)c3ccccc3)cccc2c1=O	0.5% (inactive)
CC(=O)NCC(=O)c1ccccc1	-6.35% (inactive)
CC1OC(OC2C(CO)OC(O[C@H]3CC[C@@]4(C)C(=CC[C@H]5[C@@H]6C[C@@H]7O[C@]8(CC[C@@H](C)CN8)[C@@H](C)[C@@H]7[C@@]6(C)CC[C@@H]54)C3)C(O)C2O)C(O)C(O)C1O (some centres not stated)	6.1% (inactive)
N#Cc1c(N)nc2c(c(-c3ccc(Cl)cc3)nn2-c2ccccc2)c1C#N	-23.9% (inactive)
CC(CCc1ccccc1)N(C)C(=O)CNC(=O)CN1C(=O)c2ccccc2C1=O (configuration not stated)	-15.1% (inactive)
CC(C)CC(Br)C(=O)NCC(=O)NCC(=O)O (configuration not stated)	2.85% (inactive)
CCCCC(=O)N/N=C/c1c[nH]c2ccc(Br)cc12	12.9% (inactive)
Cc1c(C(=O)CC2OC(=O)C(Cl)=C2Cl)c2ccccc2n1C(=O)Nc1ccc(Cl)cc1 (configuration not stated)	5.05% (inactive)
CN1CCCN(C(=O)N(c2ccccc2)c2ccccc2)CC1	-5.65% (inactive)
Cc1cc(C)c2[nH]c(=O)c(C)c(C)c2c1Br	-1.3% (inactive)
Cc1ccc(Nc2ccc(O)c3c2C(=O)c2ccccc2C3=O)cc1	16.1% (inactive)

Entry source: PubChem BioAssay (NCI)
